meta.source: patent US10428140B2

The reader will find reported SEAP-His: absorbance at 450 nm, percentage with respect to hEphA4-SEAP-His as 100% values listed item by item below.
# TARGET_UNDER_TEST: SEAP-His (Homo sapiens, UniProt P05187)
# Sequence (P05187 23-511 limits assumed): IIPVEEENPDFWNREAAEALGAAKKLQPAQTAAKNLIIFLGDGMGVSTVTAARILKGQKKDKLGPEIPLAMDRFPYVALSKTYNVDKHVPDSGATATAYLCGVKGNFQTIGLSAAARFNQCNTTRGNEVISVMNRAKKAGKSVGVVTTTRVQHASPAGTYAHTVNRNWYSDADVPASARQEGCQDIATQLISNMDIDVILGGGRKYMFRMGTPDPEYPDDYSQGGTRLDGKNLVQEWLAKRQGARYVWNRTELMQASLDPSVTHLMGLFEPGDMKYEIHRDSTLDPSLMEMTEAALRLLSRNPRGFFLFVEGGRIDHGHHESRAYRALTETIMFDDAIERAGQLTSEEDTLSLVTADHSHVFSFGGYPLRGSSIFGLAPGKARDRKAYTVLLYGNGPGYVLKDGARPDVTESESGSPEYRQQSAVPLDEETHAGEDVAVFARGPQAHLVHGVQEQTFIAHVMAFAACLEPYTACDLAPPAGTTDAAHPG
# ASSAY_METHOD_TEXT: Selectivity ELISA of humanized antibodies for human Eph receptor
# Type: binding
# CONDITION_SUMMARY: coated protein 1 nM
Give the value, in units of %, as a plain number.

78 (antibody, V domains shown, synthetic humanized antibody heavy chain variable region sequence; synthetic humanized antibody light chain variable region sequence) VH: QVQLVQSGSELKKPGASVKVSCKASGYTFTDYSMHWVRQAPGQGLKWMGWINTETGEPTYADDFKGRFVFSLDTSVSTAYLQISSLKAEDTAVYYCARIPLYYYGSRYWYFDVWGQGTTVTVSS VL: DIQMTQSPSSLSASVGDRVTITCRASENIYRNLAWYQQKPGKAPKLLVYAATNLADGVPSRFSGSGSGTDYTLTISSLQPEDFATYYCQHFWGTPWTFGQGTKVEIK: 5.3

Now, please, on to the next molecule.
Entry 154 (antibody, V domains shown, synthetic humanized antibody heavy chain variable region sequence; synthetic humanized antibody light chain variable region sequence) VH: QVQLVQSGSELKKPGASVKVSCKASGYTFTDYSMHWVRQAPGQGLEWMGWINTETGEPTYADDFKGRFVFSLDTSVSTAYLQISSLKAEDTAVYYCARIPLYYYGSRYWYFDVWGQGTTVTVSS VL: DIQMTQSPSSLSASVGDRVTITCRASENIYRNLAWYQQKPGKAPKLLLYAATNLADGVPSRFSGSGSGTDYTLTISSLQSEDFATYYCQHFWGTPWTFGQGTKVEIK : reported SEAP-His: absorbance at 450 nm, percentage with respect to hEphA4-SEAP-His as 100% = ? 6.3
